OBSERVATION TYPE: Kd

Form: item O=c1c(O)cccc2cc(O)c(O)c(O)c12 ; test system polo-box domain (PBD) of human polo-like kinase 1 (Plk1) (Homo sapiens, UniProt P53350); Kd: ~2700 nM
